System: RXF 393 renal
Experiment description: NCI-60 one-dose screen, 48 h (100 = growth as untreated, 0 = no growth, -100 = all killed)
Condition set: 10 µM unless noted
Compounds without any hit were thinned out: in the full panel of roughly 83,000, 20% have a hit.
# strict inequality: growth < 80% yields criterion met, everything else yields criterion not met

Request: API: query returns whether the compound falls strictly under 80% in growth. Query: Fc1cnccc1-c1nc2ccc3[nH]ncc3c2c2c1CCCC2
Response: criterion met

Request: For CN(C)CCOc1nc2c3cccnc3cc(-c3cccc(Cl)c3)c2c2ncccc12 , is the recorded growth below the cut-off of 80%?
Response: criterion met

Request: Hello, I'm reviewing records and need to know if growth of CC1=NC(c2ccc(Cl)cc2)C2=C(N1)/C(=C/c1ccc(Cl)cc1)CCC2 (stereo not given) is below 80%. Could you check?
Response: criterion not met

Request: Given the entry CC1CN(CCCOC(=O)Nc2ccc(Cl)cc2)CCN1C(C)(C)C (stereo not given) , would its reported growth be below 80%?
Response: criterion not met

Request: Does this compound meet the criterion growth < 80%? Cc1cc(C)c(C#N)c(SCC(=O)c2sc3c(C#N)c(C)cc(C)[n+]3c2[O-])n1
Response: criterion met

Request: Strictly below 80%: is that where growth of CCOC(=O)C(=CNc1ccccc1Cl)C(=O)OCC sits?
Response: criterion not met

Request: Given Cc1c(-c2ccc(-c3ccccc3F)cc2)nc2ccc(F)cc2c1C(=O)O , is recorded growth strictly lower than 80%?
Response: criterion met

Request: In the record for Oc1ccc(CCCCCCc2ccc(O)cc2)cc1 , is growth less than 80%?
Response: criterion met

Request: Lab note: growth threshold 80%. Does this compound come in strictly under it? CCCCCc1c(C)[nH]c(/C=C2\N=C(c3ccc[nH]3)C=C2CC)c1C
Response: criterion met

Request: Regarding COc1cc2nccc(Oc3ccc(NC(=O)C4(C(=O)Nc5c(F)cc(F)cc5F)CC4)cc3)c2cc1Oc1ccc(N)cn1 , kindly confirm whether its growth is beneath 80%.
Response: criterion met

Request: Below 80% on growth? Entry COc1ccc(/C(=C\c2cc(OC)c(OC)c(OC)c2)C(=O)N2CCN(c3ccccc3)CC2)cc1O
Response: criterion not met

Request: Lab log: compare recorded growth with 80%; is it strictly lower for Cc1ccc(NC(=O)c2nc(S(C)=O)oc2-c2ccc(F)cc2)cc1Nc1nccc(-c2cccnc2)n1 (stereo not given) ?
Response: criterion met

Request: Does the reported growth of COc1cc(C2CC(c3ccc(Cl)cc3)=NN2C=O)ccc1OS(=O)(=O)c1ccc(C)cc1 (stereo not given) stay below 80%?
Response: criterion not met

Request: Determine if COC1CC(N)C2OC(c3ccccc3)OCC2O1 (stereo not given) shows growth strictly lower than 80%.
Response: criterion not met

Request: Strictly below 80%: is that where growth of N#Cc1nc(-c2cccc(Br)c2)cc(-c2ccc(Nc3nc(N4CCCCC4)nc(N4CCCCC4)n3)cc2)c1N sits?
Response: criterion met

Request: Is the reported growth for C=CCn1c(C)nc2cc(Nc3nc(N4CCOCC4)nc4nc[nH]c34)ccc21 strictly below 80%?
Response: criterion not met

Request: Lab log: compare recorded growth with 80%; is it strictly lower for COc1ccc2[nH]c(O)c(/C=c3/ccc4c(c3)N=C(c3ccc(C(F)(F)F)cc3)N=4)c2c1 ?
Response: criterion met

Request: A record lists Oc1ccc(Cl)cc1-c1cc(-c2ccccc2Cl)[nH]n1 . Is its growth below 80%?
Response: criterion not met

Request: Decide: growth of COc1c(B(O)O)cccc1-c1nc2c(F)cc3n[nH]c(C)c3c2c2c1CCCC2 strictly below 80%?
Response: criterion met

Request: Lab note: confirm whether the reported growth for this compound is below 80%, equality not counting. compound: COc1ccc(/C=C/C(=O)c2ccc(NC(=O)CSc3nnc(-c4ccc(Cl)cc4)n3-c3ccccc3)cc2)cc1
Response: criterion not met

Request: Does this compound meet the criterion growth < 80%? FC(F)(F)c1ccc(/C=N/Nc2nnc3n2N=C(c2ccc(Cl)cc2)CS3)cc1
Response: criterion met

Request: Does Cc1cc(O)c(C2=NN(c3ccc(S(N)(=O)=O)cc3)C(c3ccc(Cl)cc3)C2)c(C)c1Cl (stereo not given) have growth strictly under 80%?
Response: criterion met

Request: Record O=c1c2sc3ncc(Cl)cc3c2nnn1-c1cccc(Cl)c1 : is its growth strictly below 80%?
Response: criterion not met

Request: Please state whether growth is below 80% for COc1ccc(-c2cnc3ccnn3c2-c2cc(OC)c(OC)c(OC)c2)cc1
Response: criterion met

Request: is_below(growth, 80%) for Cc1ccccc1N1C(c2ccccc2)=NNC12C=CC(=O)c1c(O)cccc12 (stereo not given) ?
Response: criterion not met

Request: Hello, is growth of the following compound strictly smaller than 80%? COc1ccc2nc(C)cc(Nc3ccccc3O)c2c1
Response: criterion met

Request: # TODO verify growth < 80% strictly for this compound: Cc1cc(C)c2c(n1)sc1c(Nc3ccc(O)cc3)ncnc12
Response: criterion met

Request: Identify whether the compound COc1c(-c2cc(-c3ccc(C)o3)[nH]c(=O)n2)c(O)cc2occc12 records growth below 80%.
Response: criterion met

Request: is_below(growth, 80%) for COc1ccc(/C=C/C(=O)c2ccc(NC(=O)CSc3nnc(-c4ccc(OC)cc4)n3-c3ccccc3)cc2)cc1 ?
Response: criterion not met

Request: # strict comparison: is reported growth < 80%? input = Cc1ccc2nc(CN(CCN(Cc3nc4ccc(C)cc4[nH]3)Cc3nc4ccc(C)cc4[nH]3)Cc3nc4ccc(C)cc4[nH]3)[nH]c2c1
Response: criterion met

Request: Please determine if CCc1oc2ccccc2c1C(=O)c1cc(I)c(O)c(I)c1 is below 80% in terms of growth.
Response: criterion met

Request: Here's an entry: Cc1c(C)c(C)c([N+](=O)[O-])c([N+](=O)[O-])c1C . Is its growth below 80%?
Response: criterion not met

Request: Identify whether the compound COC1=CC(c2ccc[nH]2)=N/C1=C\c1[nH]c(C)c(C(=O)CCCCCCCCC(=O)O[C@H]2CC[C@H]3C4CCc5cc(O)ccc5C4CC[C@]23C)c1C (stereo not given in full) records growth below 80%.
Response: criterion met

Request: growth strictly < 80% for this compound? O=NN(CC(=O)NNc1ccccc1)CC(=O)NNc1ccccc1
Response: criterion not met

Request: Item CCN(CC)CCCC(C)Nc1cnc(C(=O)Nc2cccc3ccc(OC)nc23)cn1 (stereo not given) : growth beneath 80%, strictly?
Response: criterion met

Request: growth under 80%? Item: CCCCn1cnc(-c2cc(-c3ccccc3)cc(C(F)(F)F)c2)n1
Response: criterion not met

Request: Item O=C(C(=O)c1cccnc1)c1cccnc1 : growth beneath 80%, strictly?
Response: criterion not met

Request: A record lists O=C(CCc1nc2sc3c(c2c(=O)[nH]1)CCC3)NCc1cn(-c2ccccc2)nc1-c1ccccc1 . Is its growth below 80%?
Response: criterion met

Request: Dear reviewer, please state whether Cc1nc2ccc(Nc3nc(N4CCOCC4)nc(N4CCN(C)CC4)n3)cc2n1Cc1ccccc1 has growth strictly beneath 80%.
Response: criterion met

---

Tested on: 786-0 renal
Experiment description: NCI-60 one-dose screen, 48 h (100 = growth as untreated, 0 = no growth, -100 = all killed)
Condition set: 10 µM unless noted
The panel holds about 83,000 compounds, 20% with a hit somewhere; the sample as a whole holds those more often.
// NB: equality with 80% counts as condition not met; only growth strictly below is condition met

Request: Confirm or reject: growth of COc1cc(Cn2c(-c3ccccc3)cc3c2-c2oncc2CC3)cc(OC)c1OC lies strictly below 80%
Response: condition met

Request: Determine whether this molecule shows growth lower than 80% (ties excluded): C/C(=N\NC(=S)Nc1ccccc1)c1ccccn1
Response: condition met

Request: Is it true that growth reported for COc1cc(NCCCCC(C)N)c2nccc(C)c2c1 (stereo unspecified) is less than 80%?
Response: condition not met

Request: Bench note: check whether COc1cc(C2=NOC(c3cc(OC)c(OC)c(OC)c3)C2)ccc1OCCCCOc1cc2c(cc1OC)C(=O)N1CCC[C@H]1C=N2 (stereo partly specified) shows growth below 80%
Response: condition met

Request: # check: growth < 80% for O=C(CI)NCCNc1cccc2c(S(=O)(=O)O)cccc12
Response: condition not met

Request: Answer whether the molecule CCc1ccc2c(c1)N(CCO)C1=C(C(=O)OC1)C2c1cccc(Br)c1 (stereo unspecified) has growth strictly less than 80%
Response: condition met

Request: Dear reviewer, please state whether CCN(CC)CCCNc1cccc2c(C)cc(OC)nc12 has growth strictly beneath 80%.
Response: condition not met

Request: Does this molecule meet the criterion growth < 80%? CCCCCCCCCCCCCCCCS(=O)(=O)Nc1cc(C(=O)NN)cc(C(=O)NN)c1
Response: condition not met

Request: Bench note: check whether COc1ccccc1NC(=O)OCC12COCN1COC2 shows growth below 80%
Response: condition not met

Request: hey, is growth for C=CCn1c(C)nc2cc(Nc3nc(N4CCCC4)nc4nc[nH]c34)ccc21 lower than 80% or not?
Response: condition met

Request: Strictly below 80%: is that where growth of c1ccc(C2=Nc3ccccc3SC2)cc1 sits?
Response: condition not met
